# System tested: human ether-à-go-go-related gene (hERG) potassium channel (human, UniProt Q12809);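 further: peak tail current of the secondary pulse compared with the same well before compound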
# Sequence (Q12809 whole entry, looked up): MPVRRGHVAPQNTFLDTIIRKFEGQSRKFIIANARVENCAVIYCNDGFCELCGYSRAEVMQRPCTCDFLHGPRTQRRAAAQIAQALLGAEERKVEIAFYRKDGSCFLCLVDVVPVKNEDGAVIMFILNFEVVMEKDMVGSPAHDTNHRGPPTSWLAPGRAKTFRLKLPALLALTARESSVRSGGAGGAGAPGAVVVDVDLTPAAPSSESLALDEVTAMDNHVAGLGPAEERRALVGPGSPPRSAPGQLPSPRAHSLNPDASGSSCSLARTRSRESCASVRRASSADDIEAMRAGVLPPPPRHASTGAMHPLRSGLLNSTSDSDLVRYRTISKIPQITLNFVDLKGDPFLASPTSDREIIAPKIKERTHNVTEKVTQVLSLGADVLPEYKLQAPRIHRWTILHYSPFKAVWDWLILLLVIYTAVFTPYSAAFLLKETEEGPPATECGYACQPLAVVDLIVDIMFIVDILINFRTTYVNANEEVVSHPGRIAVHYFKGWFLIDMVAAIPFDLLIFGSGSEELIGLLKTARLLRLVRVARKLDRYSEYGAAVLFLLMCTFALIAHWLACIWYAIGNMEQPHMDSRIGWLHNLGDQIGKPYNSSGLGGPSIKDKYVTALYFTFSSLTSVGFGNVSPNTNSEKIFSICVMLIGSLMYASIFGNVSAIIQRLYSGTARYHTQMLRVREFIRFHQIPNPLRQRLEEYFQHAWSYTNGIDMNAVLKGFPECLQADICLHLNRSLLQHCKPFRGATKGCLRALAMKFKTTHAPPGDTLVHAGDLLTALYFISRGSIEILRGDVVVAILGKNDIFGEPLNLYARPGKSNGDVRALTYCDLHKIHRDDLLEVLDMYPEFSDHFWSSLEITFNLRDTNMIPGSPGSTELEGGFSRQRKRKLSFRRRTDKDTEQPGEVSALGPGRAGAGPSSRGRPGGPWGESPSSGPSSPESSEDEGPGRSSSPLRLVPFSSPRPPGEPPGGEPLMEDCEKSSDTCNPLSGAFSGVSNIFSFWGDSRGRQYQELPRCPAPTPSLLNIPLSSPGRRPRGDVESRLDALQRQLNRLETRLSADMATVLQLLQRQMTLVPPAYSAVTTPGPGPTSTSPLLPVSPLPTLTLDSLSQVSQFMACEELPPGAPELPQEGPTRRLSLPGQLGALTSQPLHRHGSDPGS
# Measurement notes: primary screen, population patch clamp on CHO cells stably expressing hERG; higher = less effect of the substance
The whole screen tested about 310,000 compounds, of which about 14,000 (4.5%) showed an effect of 50% or more. Effects have a minus sign here. Only a selection was taken, and strong results are over-represented in it overall.
Recorded metric: hERG current change (%, negative = inhibition) at 10uM (%)
Numbers only, in %.

# Molecule, Reading unit, Observed value
rows = [
    ("O=C(NNC(=S)NC(=O)c1ccccc1)c1ccc(O)cc1", "%", 24.7),
    ("CN1CCN(C(=O)c2cn(-c3ccccc3)nc2-c2cccnc2)CC1", "%", -18.4),
]

// batch mode: one hERG current change (%, negative = inhibition) at 10uM value per listed entry
1. N#Cc1ccccc1S(=O)(=O)N1CCN(C(=O)c2cn(-c3ccccc3)nc2-c2cccnc2)CC1
2. C=CCC1(CC=C)CCCN1C(=O)C1CCC(=O)N(CCc2ccccc2)C1 (stereo not shown)
3. CCOc1ccccc1C(=O)OCC(=O)NCC1CCCCC1
4. COc1ccccc1N1CCN(C(=O)c2cn(-c3ccccc3)nc2-c2cccnc2)CC1
5. CC(C)C1CCN(C(=O)C2CCC(=O)N(CCc3ccc(Cl)cc3)C2)CC1 (stereo not shown)
6. CCn1c(SCc2nc(-c3ccccc3)no2)nc2ccccc21
7. O=C(Cn1c(=O)c2sccc2n(Cc2ccc([N+](=O)[O-])cc2)c1=O)NCCc1ccccc1

1. -48
2. -12.5
3. -7.31
4. -50.2
5. -52.6
6. -24.6
7. -49

Working through the 8 molecules below one at a time, give hERG current change (%, negative = inhibition) at 10uM for each.
1. CCCCc1nc2ccccc2n1Cc1nnc2n1-c1ccccc1SC2
2. O=C(/C=C/c1ccco1)NCC1(c2ccccc2)CCCC1
3. C=CCC1(CC=C)CCCN1C(=O)C1CCC(=O)N(CCc2ccc(OC)cc2)C1 (stereo not shown)
4. COc1ccc(N2CC(C(=O)Nc3nc(-c4ccccc4)c(C(C)=O)s3)CC2=O)c(OC)c1 (stereo not shown)
5. Cc1ccc2cccc(S(=O)(=O)N3CCN(c4cccc(Cl)c4)CC3)c2n1
6. O=C(/C=C/c1ccc(F)cc1)NCC1(c2ccccc2)CCOCC1
7. CSCC[C@H](NC(=O)[C@@H]1CSC2c3ccccc3C(=O)N21)C(=O)N1CCC[C@H]1CO (stereo partly shown)
8. COc1ccc(N2CC(C(=O)Nc3nc4ccc(F)cc4s3)CC2=O)c(OC)c1 (stereo not shown)

1. -63
2. -4.49
3. -18.6
4. -0.242
5. -2.91
6. -50.5
7. 1.52
8. -56.3

Field: hERG current change (%, negative = inhibition) at 10uM. Fill in for each record below.
1. COc1ccccc1N1CCN(C(=O)c2cn(Cc3ccccc3)nc2-c2cccnc2)CC1
2. Cc1[nH][nH]c(=O)c1C(c1ccc(O)c([N+](=O)[O-])c1)c1c(C)[nH][nH]c1=O

[-8.12, 18.8]

###

# System tested: human ether-à-go-go-related gene (hERG) potassium channel (human, UniProt Q12809);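 further: peak tail current of the secondary pulse compared with the same well before compound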
# Measurement notes: primary screen, population patch clamp on CHO cells stably expressing hERG; higher = less effect of the substance
The whole screen tested about 310,000 compounds, of which about 14,000 (4.5%) showed an effect of 50% or more. Effects have a minus sign here. This excerpt belongs to a sample that is enriched for strong results.
Label scheme for hERG current change (%, negative = inhibition) at 10uM: lower than -40% is f, -40% and above is t.

# Compound, Class name
records = [
    ("CC(C)c1ccc(S(=O)(=O)N(C)C2(C)CCS(=O)(=O)C2)cc1 (stereo not shown)", "f"),
    ("Cc1ccc2c(ccc(=S)n2C)c1", "t"),
    ("C[C@H]1CCC(=O)N([C@H](COc2ccccc2)Cc2ccccc2)CC1", "f"),
    ("OCC1(Cc2cccc(F)c2)CCN(Cc2ccc3cccc(F)c3n2)CC1", "f"),
    ("Cc1ccc(Sc2ccc([N+](=O)[O-])cc2[N+](=O)[O-])nc1", "t"),
]

Please check the record N#CC[C@H](Cc1ccccc1)N1CCN(Cc2ccccc2)CCC1=O and state if its hERG current change (%, negative = inhibition) at 10uM is at or above -40%.
t

// inclusive: hERG current change (%, negative = inhibition) at 10uM at least -40%? input: O=C1CCN(Cc2ccccc2)CCN1[C@H](COc1ccccc1)Cc1ccccc1
f
